// data source = PubChem BioAssay (NCI)

System: LOX IMVI melanoma
Test: NCI-60 one-dose screen, 48 h (100 = growth as untreated, 0 = no growth, -100 = all killed)
Conditions: 10 µM unless noted
This is part of a sample that, as a whole, favours compounds with a hit. Of some 83,000 tested, about 20% had one in any assay.
Test readout: growth (%)

[
  {
    "Compound": "CCCCCCCCCCCCCC[N+](C)(C)CCCCCCCCCCCCCC",
    "Test readout": "growth",
    "Value units": "%",
    "Numeric value": 51.8
  },
  {
    "Compound": "Nc1ccc(C(OC(=O)c2cc3ccccc3c(Cc3c(O)c(C(=O)OC(c4ccc(N)cc4)(c4ccc(N)cc4)c4ccc(N)cc4)cc4ccccc34)c2O)(c2ccc(N)cc2)c2ccc(N)cc2)cc1",
    "Test readout": "growth",
    "Value units": "%",
    "Numeric value": 24
  },
  {
    "Compound": "O=C(CI)NCCNc1cccc2c(S(=O)(=O)O)cccc12",
    "Test readout": "growth",
    "Value units": "%",
    "Numeric value": 103
  },
  {
    "Compound": "COc1cc(/C=C/C(=O)c2c(C)nc3ccccc3c2C)ccc1OCCCOc1cc2c(cc1OC)C(=O)N1CCC[C@H]1C=N2",
    "Test readout": "growth",
    "Value units": "%",
    "Numeric value": -99.3
  }
]

* * *

Reported growth by item:
Tested on: OVCAR-3 ovarian
Experiment: NCI-60 one-dose screen, 48 h (100 = growth as untreated, 0 = no growth, -100 = all killed)
Conditions: 10 µM unless noted
Compounds without any hit were thinned out: in the full panel of roughly 83,000, 20% have a hit.

[
  {
    "Compound": "CCc1ccc2c(c1)N(CCO)C1=C(C(=O)OC1)C2c1cccc(Br)c1 (configuration not stated)",
    "growth, %": -10.6
  },
  {
    "Compound": "COc1cc(C)cc2oc3oc(=O)c(-c4csc(-c5cc6ccccc6oc5=O)n4)cc3c(=O)c12",
    "growth, %": 116
  },
  {
    "Compound": "COc1cc(NCCCCC(C)N)c2nccc(C)c2c1 (configuration not stated)",
    "growth, %": 73.5
  },
  {
    "Compound": "COc1ccc2[nH]cc(/C=C3\\C(=O)Nc4ccccc43)c2c1",
    "growth, %": 35.5
  },
  {
    "Compound": "CC(=O)N(C)c1ccc(Nc2cc(C)[nH]c3ccc4ncnc4c23)cc1",
    "growth, %": 76.3
  },
  {
    "Compound": "Nc1nc(N)c2c(n1)NC(c1sc(Cl)nc1Cl)CC(c1ccc3c(c1)OCO3)=N2 (configuration not stated)",
    "growth, %": 10.4
  },
  {
    "Compound": "O=C1C=CC(=O)N1CO",
    "growth, %": 113
  },
  {
    "Compound": "CC1=NN(c2cccc(S(N)(=O)=O)c2)C(=O)C1",
    "growth, %": 96.3
  },
  {
    "Compound": "C#CC[C@@H]1C[C@]2(C)[C@H]3CC=C4[C@H]5[C@@H](C)[C@H](C)CC[C@]5(C(=O)NCCCCCCCCN)CC[C@@]4(C)[C@]3(C)CC[C@H]2C(C)(C)[C@H]1OC(C)=O",
    "growth, %": -91.5
  },
  {
    "Compound": "Cc1n(Cc2ccc3ccccc3n2)cc[n+]1Cc1ccc2ccccc2c1",
    "growth, %": 6.35
  },
  {
    "Compound": "CN(C)c1ccc(C(c2ccccc2)c2ccc(N(C)C)cc2)cc1",
    "growth, %": 94.9
  },
  {
    "Compound": "CCCCCCCCCCCCCCCCOc1ccc(S(=O)(=O)N(C)C)cc1[N+](=O)[O-]",
    "growth, %": 117
  },
  {
    "Compound": "COC(=O)c1cc2oc(/C=N/NC(=O)c3cc4oc(-c5cccc(C(F)(F)F)c5)cc4[nH]3)cc2n1Cc1ccccc1",
    "growth, %": 111
  },
  {
    "Compound": "COc1cc(Nc2ccnc3ccc(Br)cc23)cc(OC)c1OC",
    "growth, %": 29.8
  },
  {
    "Compound": "CC[C@H](Nc1nc(C)nc(N)c1C#N)c1nc2cccc(NCc3ccc(C(=O)NO)cc3)c2c(=O)n1-c1ccccc1",
    "growth, %": 4.73
  },
  {
    "Compound": "CN(C)c1ccc(Nc2c3ccccc3nc3ccccc23)cc1",
    "growth, %": -11.7
  },
  {
    "Compound": "COc1ccc(-c2cnc3ccnn3c2-c2cc(OC)c(OC)c(OC)c2)cc1",
    "growth, %": -37.9
  },
  {
    "Compound": "COC(=O)C1(C)COP(=O)(NC23CC4CC(CC(C4)C2)C3)OC1 (configuration not stated)",
    "growth, %": 106
  },
  {
    "Compound": "CN(C)CCOc1nc2c3cccnc3cc(-c3cccc(Cl)c3)c2c2ncccc12",
    "growth, %": 17.8
  },
  {
    "Compound": "C=CCn1c(SCC(=O)Nc2ccc(/C(C)=N\\O)cc2)nnc1-c1cc(-c2ccccc2)nc2ccccc12",
    "growth, %": 58.3
  },
  {
    "Compound": "COc1ccc(C(=O)/C=C/c2cn(-c3ccccc3)nc2-c2cccc(Nc3ccnc4cc(Cl)ccc34)c2)cc1",
    "growth, %": 110
  },
  {
    "Compound": "N#CC1=C(N)Oc2nc[nH]c(=O)c2C1c1cccs1 (configuration not stated)",
    "growth, %": 108
  },
  {
    "Compound": "Clc1ccc(Nc2ncnc3c2sc2ncccc23)c(Cl)c1",
    "growth, %": 55.5
  },
  {
    "Compound": "NC(=O)Nc1ccc2ncnc(Nc3cccc(O)c3)c2c1",
    "growth, %": 82.8
  },
  {
    "Compound": "COc1ccc(/C=C/C(=O)c2ccc(NC(=O)CSc3nnc(-c4ccc(OC)cc4)n3-c3ccccc3)cc2)cc1",
    "growth, %": 103
  },
  {
    "Compound": "COC(=O)C(C)NC1=C(Cl)C(=O)C(NC(C)C(=O)OC)=C(Cl)C1=O (configuration not stated)",
    "growth, %": 61.2
  },
  {
    "Compound": "CC(COC(=O)c1ccccc1)N1CC2CCC(C1)O2 (configuration not stated)",
    "growth, %": 104
  },
  {
    "Compound": "CCCc1n(Cc2ccc3ccccc3n2)cc[n+]1Cc1ccc2ccccc2c1",
    "growth, %": -4
  },
  {
    "Compound": "c1ccc2c(Cc3csc4ccccc34)csc2c1",
    "growth, %": 92.5
  },
  {
    "Compound": "Cc1cc(C)c2c(n1)sc1c(Nc3ccc(Cl)cc3Cl)ncnc12",
    "growth, %": 57.3
  },
  {
    "Compound": "CCOC(CN1CCN(CC(C)C(=O)c2ccccc2)CC1)c1ccccc1 (configuration not stated)",
    "growth, %": 112
  },
  {
    "Compound": "CC(C)c1[nH]ncc1-c1nc2ccc3[nH]ncc3c2c2c1CCCC2",
    "growth, %": 46.8
  },
  {
    "Compound": "COc1ccc(/C=c2\\c(=O)n(-c3ccccc3)c3nn4c(n23)=NNC42CCCCC2)cc1",
    "growth, %": 95.9
  },
  {
    "Compound": "O=C(CS)OCC(COC(=O)CS)(COC(=O)CS)COC(=O)CS",
    "growth, %": 109
  },
  {
    "Compound": "O=C(/C=C/c1ccccc1)n1c(-c2ccccc2)nc2ccccc21",
    "growth, %": 111
  },
  {
    "Compound": "COC(=O)c1cc(Cl)cc([N+](=O)[O-])c1O",
    "growth, %": 114
  },
  {
    "Compound": "C/C(=N\\NC(=S)N1CCCCC1)c1ccccn1",
    "growth, %": -12.9
  },
  {
    "Compound": "CCCCCCCCCCCC1=NC(C)(C)CN1C(C)(C)CO",
    "growth, %": 76.7
  },
  {
    "Compound": "COc1ccccc1/C=N\\NC(=S)Nc1ccc(F)cc1",
    "growth, %": 69.7
  },
  {
    "Compound": "O=C(OCc1ccc2c(Cl)cc(Cl)c(O)c2n1)c1cc2ccccc2[nH]1",
    "growth, %": -92.1
  },
  {
    "Compound": "Cc1ccc(S(=O)(=O)NC(CCC(=O)Nc2ccc(Cl)cc2)C(=O)Nc2ccc(Cl)cc2)cc1 (configuration not stated)",
    "growth, %": 7.96
  },
  {
    "Compound": "CC1=NOCC(=O)N1",
    "growth, %": 108
  }
]
